Data origin, for the record: patent US20150274826A1

System Under Test: T1, human CD47 (human, UniProt Q08722 19-323)
T1 construct: whole, on cells; also called CD47 on human RBCs; CD47 on OV10 cells
T1 sequence (Q08722 19-323): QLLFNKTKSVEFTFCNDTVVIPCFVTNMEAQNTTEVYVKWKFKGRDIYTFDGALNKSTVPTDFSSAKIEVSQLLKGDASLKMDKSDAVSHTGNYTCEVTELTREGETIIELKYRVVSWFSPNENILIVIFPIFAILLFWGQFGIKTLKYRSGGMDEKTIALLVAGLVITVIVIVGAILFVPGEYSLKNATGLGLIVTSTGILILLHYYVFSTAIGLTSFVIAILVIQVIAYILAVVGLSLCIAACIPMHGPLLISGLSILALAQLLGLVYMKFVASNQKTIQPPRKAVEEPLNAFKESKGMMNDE
Assay Procedure: flow cytometry on RBCs, CHO supernatant 10 ng/ml
Kindly supply the reported mean fluorescence relative to chimeric antibody values for the records listed here.
The reply should contain only the number, in ratio.

stdin: Request the reported mean fluorescence relative to chimeric antibody associated with Clone 6 (pVxK7b-037-hum06-LC / pVxK7b-037-hum06-HC) (antibody, human IgG1, kappa, V domains shown) VH: QVQLQESGPGLVKPSQTLSLTCTVSGYTFTNYYVFWVRQARGQRLEWIGDINPVNGDTNFNEKFKNRLTISKDTSKNQVVLTMTNMDPVDTATYYCARGGYTMDYWGQGTLVTVSS VL: DIQMTQSPSSLSASVGDRVTITCRSSQSLVHSNGNTYLHWYLQKPGQSPQLLIYKVSYRFSGIPARFSGSGSGTEFTLTISSLQSEDFAVYYCSQNTHVPRTFGQGTKVEIKR
stdout: 0.9

stdin: Now consider Clone 12 (pVxK7b-037-hum12-LC / pVxK7b-037-hum12-HC) (antibody, human IgG1, kappa, V domains shown) VH: QVQLQESGPGLVKPGATVKISCKVSGYTFTNYYVFWVRQARGQRLEWIGDINPVNGDTNFNEKFKNRVTITADKSTSTAYMELSSLRSEDTAVYYCARGGYTMDYWGQGTLVTVSS VL: DIVMTQTPLSLPVTPGEPASISCRSSQSLVHSNGNTYLHWYQQKPGKAPKLLIYKVSYRFSGVPDRFSGSGSGTDFTLKISRVEAEDVGVYYCSQNTHVPRTFGQGTKVEIKR .
stdout: 0.8

stdin: Clone 22 (pVxK7b-037-hum22-LC / pVxK7b-037-hum22-HC) (antibody, human IgG1, kappa, V domains shown) VH: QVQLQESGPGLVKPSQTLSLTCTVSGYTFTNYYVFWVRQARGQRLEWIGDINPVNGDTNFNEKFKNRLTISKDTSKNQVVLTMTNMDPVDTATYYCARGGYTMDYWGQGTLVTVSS VL: EIVLTQSPATLSVSPGERATLSCRSSQSLVHSNGNTYLHWYQQKPGQAPRLLIYKVSYRFSGVPSRFSGSGSGTDFTFTISSLEAEDAATYYCSQNTHVPRTFGQGTKVEIKR ?
stdout: 1.1

stdin: And what about the binder Clone 7 (pVxK7b-037-hum07-LC / pVxK7b-037-hum07-HC) (antibody, human IgG1, kappa, V domains shown) VH: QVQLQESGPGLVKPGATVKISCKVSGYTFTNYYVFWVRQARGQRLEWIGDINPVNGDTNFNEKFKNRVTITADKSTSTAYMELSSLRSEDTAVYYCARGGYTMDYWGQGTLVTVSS VL: DIVMTQTPLSLPVTPGEPASISCRSSQSLVHSNGNTYLHWYLQKPGQSPQLLIYKVSYRFSGVPDRFSGSGSGTDFTLKISRVEAEDVGVYYCSQNTHVPRTFGQGTKVEIKR ?
stdout: 0.5

stdin: Next: Clone 10 (pVxK7b-037-hum10-LC / pVxK7b-037-hum10-HC) (antibody, human IgG1, kappa, V domains shown) VH: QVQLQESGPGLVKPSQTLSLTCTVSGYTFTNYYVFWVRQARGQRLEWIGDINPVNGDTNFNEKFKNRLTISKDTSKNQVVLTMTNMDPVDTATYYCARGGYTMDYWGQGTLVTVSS VL: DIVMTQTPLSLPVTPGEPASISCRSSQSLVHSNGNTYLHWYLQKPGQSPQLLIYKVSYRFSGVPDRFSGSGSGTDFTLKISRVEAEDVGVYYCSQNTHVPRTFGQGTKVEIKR
stdout: 1.1
